Experiment: Serial tail vein bleed PK study in SD rats: methylone measured in plasma after IV or oral methylone or oral methylone prodrugs
Format: in vivo, Sprague Dawley rats
Conditions: male, Sprague-Dawley, rat, plasma, iv, 1 mg/kg, methylone in plasma; methylone 1 mg/kg IV; male SD rats; mean; read-out: AUC0-inf
recorded.endpoint: AUC(0-inf)
Include the unit after the number when you answer.

Q: Request the reported AUC(0-inf) associated with CNC(C)C(=O)c1ccc2c(c1)OCO2 (racemic) [Methylone, 3,4-methylenedioxy-N-methylcathinone, reference compound]
Result: 145 ng·h/mL

====

Test: Serial tail vein bleed PK study in SD rats: methylone measured in plasma after IV or oral methylone or oral methylone prodrugs
Format: in vivo, Sprague Dawley rats
Conditions: male, Sprague-Dawley, rat, plasma, po, 10 mg/kg, methylone in plasma; methylone 10 mg/kg oral; male SD rats; mean; read-out: AUC0-inf
recorded.endpoint: AUC(0-inf) (ng·h/mL)
Just the number in ng·h/mL, nothing appended.

Q: Request the reported AUC(0-inf) associated with CNC(C)C(=O)c1ccc2c(c1)OCO2 (racemic) [Methylone, 3,4-methylenedioxy-N-methylcathinone, reference compound]
Result: 890

====

Assay: Serial tail vein bleed PK study in SD rats: methylone measured in plasma after IV or oral methylone or oral methylone prodrugs
Assay type: in vivo, Sprague Dawley rats
Conditions: male, Sprague-Dawley, rat, plasma, iv, 1 mg/kg, methylone in plasma; methylone 1 mg/kg IV; male SD rats; individual animals; read-out: AUC0-inf
recorded.endpoint: AUC(0-inf) (ng·h/mL)
Just the number in ng·h/mL, nothing appended.

Q: Request the reported AUC(0-inf) associated with CNC(C)C(=O)c1ccc2c(c1)OCO2 (racemic) [Methylone, 3,4-methylenedioxy-N-methylcathinone, reference compound]
Result: 168

====

Assay: Serial tail vein bleed PK study in SD rats: methylone measured in plasma after IV or oral methylone or oral methylone prodrugs
Type: in vivo, Sprague Dawley rats
Settings: male, Sprague-Dawley, rat, plasma, po, 10 mg/kg, methylone in plasma; methylone 10 mg/kg oral; male SD rats; mean
recorded.endpoint: AUC(0-t) (ng·h/mL)
Just the number in ng·h/mL, nothing appended.

Q: Request the reported AUC(0-t) associated with CNC(C)C(=O)c1ccc2c(c1)OCO2 (racemic) [Methylone, 3,4-methylenedioxy-N-methylcathinone, reference compound]
Result: 681

====

Experiment: Serial tail vein bleed PK study in SD rats: methylone measured in plasma after IV or oral methylone or oral methylone prodrugs
Type: in vivo, Sprague Dawley rats
Settings: male, Sprague-Dawley, rat, plasma, iv, 1 mg/kg, methylone in plasma; methylone 1 mg/kg IV; male SD rats; individual animals; read-out: Tmax
recorded.endpoint: Tmax (min)
Just the number in min, nothing appended.

Q: Request the reported Tmax associated with CNC(C)C(=O)c1ccc2c(c1)OCO2 (racemic) [Methylone, 3,4-methylenedioxy-N-methylcathinone, reference compound]
Result: 15

====

Assay: Serial tail vein bleed PK study in SD rats: methylone measured in plasma after IV or oral methylone or oral methylone prodrugs
Assay type: in vivo, Sprague Dawley rats
Conditions: male, Sprague-Dawley, rat, plasma, iv, 1 mg/kg, methylone in plasma; methylone 1 mg/kg IV; male SD rats; mean; read-out: Tmax
recorded.endpoint: Tmax
Include the unit after the number when you answer.

Q: Request the reported Tmax associated with CNC(C)C(=O)c1ccc2c(c1)OCO2 (racemic) [Methylone, 3,4-methylenedioxy-N-methylcathinone, reference compound]
Result: 15 min

====

Assay: Serial tail vein bleed PK study in SD rats: methylone measured in plasma after IV or oral methylone or oral methylone prodrugs
Type: in vivo, Sprague Dawley rats
Conditions: male, Sprague-Dawley, rat, plasma, iv, 1 mg/kg, methylone in plasma; methylone 1 mg/kg IV; male SD rats; individual animals
recorded.endpoint: AUC(0-t) (ng·h/mL)
Just the number in ng·h/mL, nothing appended.

Q: Request the reported AUC(0-t) associated with CNC(C)C(=O)c1ccc2c(c1)OCO2 (racemic) [Methylone, 3,4-methylenedioxy-N-methylcathinone, reference compound]
Result: 163

====

Test: Serial tail vein bleed PK study in SD rats: methylone measured in plasma after IV or oral methylone or oral methylone prodrugs
Assay type: in vivo, Sprague Dawley rats
Details: male, Sprague-Dawley, rat, plasma, po, 10 mg/kg, methylone in plasma; methylone 10 mg/kg oral; male SD rats; individual animals; read-out: AUC0-inf
recorded.endpoint: AUC(0-inf) (ng·h/mL)
Just the number in ng·h/mL, nothing appended.

Q: Request the reported AUC(0-inf) associated with CNC(C)C(=O)c1ccc2c(c1)OCO2 (racemic) [Methylone, 3,4-methylenedioxy-N-methylcathinone, reference compound]
Result: 729

====

Assay: Serial tail vein bleed PK study in SD rats: methylone measured in plasma after IV or oral methylone or oral methylone prodrugs
Assay type: in vivo, Sprague Dawley rats
Details: male, Sprague-Dawley, rat, plasma, iv, 1 mg/kg, methylone in plasma; methylone 1 mg/kg IV; male SD rats; individual animals; read-out: T½ (converted)
recorded.endpoint: half-life (min)
Just the number in min, nothing appended.

Q: Request the reported half-life associated with CNC(C)C(=O)c1ccc2c(c1)OCO2 (racemic) [Methylone, 3,4-methylenedioxy-N-methylcathinone, reference compound]
Result: 24.6

====

Assay: Serial tail vein bleed PK study in SD rats: methylone measured in plasma after IV or oral methylone or oral methylone prodrugs
Format: in vivo, Sprague Dawley rats
Conditions: male, Sprague-Dawley, rat, plasma, po, 10 mg/kg, methylone in plasma; methylone 10 mg/kg oral; male SD rats; individual animals
recorded.endpoint: AUC(0-t) (ng·h/mL)
Just the number in ng·h/mL, nothing appended.

Q: Request the reported AUC(0-t) associated with CNC(C)C(=O)c1ccc2c(c1)OCO2 (racemic) [Methylone, 3,4-methylenedioxy-N-methylcathinone, reference compound]
Result: 636

====

Experiment: Serial tail vein bleed PK study in SD rats: methylone measured in plasma after IV or oral methylone or oral methylone prodrugs
Type: in vivo, Sprague Dawley rats
Conditions: male, Sprague-Dawley, rat, plasma, iv, 1 mg/kg, methylone in plasma; methylone 1 mg/kg IV; male SD rats; mean
recorded.endpoint: AUC(0-t) (ng·h/mL)
Just the number in ng·h/mL, nothing appended.

Q: Request the reported AUC(0-t) associated with CNC(C)C(=O)c1ccc2c(c1)OCO2 (racemic) [Methylone, 3,4-methylenedioxy-N-methylcathinone, reference compound]
Result: 142

====

Experiment: Serial tail vein bleed PK study in SD rats: methylone measured in plasma after IV or oral methylone or oral methylone prodrugs
Format: in vivo, Sprague Dawley rats
Conditions: male, Sprague-Dawley, rat, plasma, iv, 1 mg/kg, methylone in plasma; methylone 1 mg/kg IV; male SD rats; mean; read-out: T½ (converted)
recorded.endpoint: half-life (min)
Just the number in min, nothing appended.

Q: Request the reported half-life associated with CNC(C)C(=O)c1ccc2c(c1)OCO2 (racemic) [Methylone, 3,4-methylenedioxy-N-methylcathinone, reference compound]
Result: 23.7

====

Test: Serial tail vein bleed PK study in SD rats: methylone measured in plasma after IV or oral methylone or oral methylone prodrugs
Assay type: in vivo, Sprague Dawley rats
Details: male, Sprague-Dawley, rat, plasma, po, 10 mg/kg, methylone in plasma; methylone 10 mg/kg oral; male SD rats; mean; read-out: Cmax
Method: A pharmacokinetic (PK) study was performed in three male Sprague-Dawley (SD) rats following intravenous (IV) and oral (PO) administration of methylone at 1 mg/kg (IV) and 10 mg/kg (PO) respectively, or test compounds (prodrugs of methylone) at 10 mg/kg (PO). Parent compound (methylone) was measured in plasma. […] The pharmacokinetic properties of the synthesized methylone prodrugs after oral administration in a rat model were assessed. […]
recorded.endpoint: Cmax

Q: Request the reported Cmax associated with CNC(C)C(=O)c1ccc2c(c1)OCO2 (racemic) [Methylone, 3,4-methylenedioxy-N-methylcathinone, reference compound]
Result: 170 ng/mL

====

Assay: Serial tail vein bleed PK study in SD rats: methylone measured in plasma after IV or oral methylone or oral methylone prodrugs
Type: in vivo, Sprague Dawley rats
Conditions: male, Sprague-Dawley, rat, plasma, iv, 1 mg/kg, methylone in plasma; methylone 1 mg/kg IV; male SD rats; individual animals; read-out: Cmax
recorded.endpoint: Cmax (ng/mL)
Just the number in ng/mL, nothing appended.

Q: Request the reported Cmax associated with CNC(C)C(=O)c1ccc2c(c1)OCO2 (racemic) [Methylone, 3,4-methylenedioxy-N-methylcathinone, reference compound]
Result: 192
